- protocolSummary: RP, Thermo Scientific Acclaim RSLC 120 C18, 100 × 2.1 mm, 2.2 µm, 30 °C, 0.2 mL/min, estimated dead time 1.1 min; A: 90% water + 10% methanol + 0.01% formic acid + 5 mM ammonium formate, pH 3.61; B: methanol + 0.01% formic acid + 5 mM ammonium formate, pH 3.61; gradient (min/%B) 0/1 1/1 2/39 13/99.9 15/99.9 15.1/1 20.1/1
- assaySetup: stereoisomer not certain
valueKind: LC retention time (min)

[[record]]
compound = "Cc1nn(C)c(OCC(=O)c2ccccc2)c1C(=O)c1ccc(Cl)cc1Cl [Pyrazoxyfen]"
valuekind = "LC retention time"
measuredresult = 10.9

[[record]]
compound = "CNCC(O)c1ccc(O)c(O)c1 (stereo not given) [Epinephrine]"
valuekind = "LC retention time"
measuredresult = 1.38

[[record]]
compound = "CC(=O)CC(c1ccc(Cl)cc1)c1c(O)c2ccccc2oc1=O (stereo not given) [Coumachlor]"
valuekind = "LC retention time"
measuredresult = 10.2

[[record]]
compound = "CC1(C)OC2CC3C4CC(F)C5=CC(=O)C=CC5(C)C4C(O)CC3(C)C2(C(=O)CO)O1 (stereo not given) [Flunisolide]"
valuekind = "LC retention time"
measuredresult = 9.01

[[record]]
compound = "C#CCN(C)C(C)Cc1ccccc1 (stereo not given) [Deprenyl / Selegiline]"
valuekind = "LC retention time"
measuredresult = 4.68

[[record]]
compound = "CC(CCc1ccccc1)NCC(O)c1ccc(O)c(C(N)=O)c1 (stereo not given) [Labetalol]"
valuekind = "LC retention time"
measuredresult = 5.74

[[record]]
compound = "CC(C)N1C(=O)c2ccccc2NS1(=O)=O [Bentazone]"
valuekind = "LC retention time"
measuredresult = 5.22

[[record]]
compound = "CN1CCCC1CCOC(C)(c1ccccc1)c1ccc(Cl)cc1 (stereo not given) [Clemastine]"
valuekind = "LC retention time"
measuredresult = 9.31

[[record]]
compound = "CCCSP(=O)(OCC)SCCC [Ethoprophos]"
valuekind = "LC retention time"
measuredresult = 10.2

[[record]]
compound = "CCCOC(=O)NCCCN(C)C [Propamocarb]"
valuekind = "LC retention time"
measuredresult = 3.5

